# ASSAY_TARGET: L-lactate dehydrogenase (Plasmodium falciparum (isolate CDC / Honduras))
# ASSAY_PROTOCOL: PfLDH activity inhibition – cell lysate, 3D7 strain, counter-screen for P. falciparum growth inhibition project (AID 2304);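 also: 0% = vehicle and 100% = reference inhibitor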
# EXPERIMENTAL_CONDITIONS: P. falciparum 3D7 crude extract, LDH APAD/NBT absorbance; at 2 µM; hits give high values
VALUE_KIND: inhibition (%)
Give just the number in %; leave the unit off.

compound=COc1cc(Nc2ncc3c(C)nc(-c4cccc(Nc5ccc(CN6CCS(=O)(=O)CC6)cc5)c4)n3n2)cc(OC)c1OC value_kind=inhibition unit=% numeric_readout=2
compound=Cc1ccc(C(=O)Nc2ccc(Nc3ccnc4cc(-c5ccccn5)ccc34)cc2O)cc1 value_kind=inhibition unit=% numeric_readout=2
compound="CC(C)(C)C1CCC(CC2=C(C(=O)O)c3ccccc3C2=O)CC1 (stereo not given)" value_kind=inhibition unit=% numeric_readout=-1
compound="Cc1ccc(Cn2cnc(N3CC(C)NC(C)C3)cc2=O)cc1NC(=O)Nc1ccc(-c2ccccc2)cc1 (stereo not given)" value_kind=inhibition unit=% numeric_readout=4
compound=COc1ccc2c(c1)ncn2-c1cc(OCc2ccncc2Br)c(C(N)=O)s1 value_kind=inhibition unit=% numeric_readout=-2
compound="Cc1cc(Cl)ccc1OC(C)C(=O)N1CCc2ccccc21 (stereo not given)" value_kind=inhibition unit=% numeric_readout=-2

From here, focus on the item given below.
Reported inhibition for O=c1cc(NC[C@@H]2CCC[C@@H]2NCc2ccc(Cl)c(Cl)c2)[nH]c2ccccc12 was -1

* * *

# ASSAY_PROTOCOL: inhibition of 3D7 malaria parasite growth – strain 3D7 (AID 2306);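 also: 0% = DMSO wells and 100% = chloroquine plus artemisinin control wells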
# EXPERIMENTAL_CONDITIONS: P. falciparum 3D7 erythrocytic growth, LDH absorbance, 72 h; at 2 µM; hits give high values
VALUE_KIND: growth inhibition (%)
Give just the number in %; leave the unit off.

Before answering, review these 2 worked examples.
compound=Nc1cccc(CNCc2cccc(-c3ccc(-c4nc5ccccc5[nH]4)cc3)c2)c1 numeric_readout=101
compound=Clc1ccc(Nc2nc3ccc(Cl)cc3nc2Nc2ccc(Cl)cc2)cc1 numeric_readout=99

Reported growth inhibition for COc1cc2nc(N3CCN(c4nc(N)c5cc(OC)c(OC)cc5n4)CC3)nc(N)c2cc1OC was 101

Reported growth inhibition for CCC(ON1C(N)=NC(N)=NC1(C)C)c1ccc(Cl)cc1 (centres undefined) was 91

* * *

# ASSAY_PROTOCOL: human hepatoma cell viability loss – ATP luminescence, cytotoxicity control for P. falciparum antimalarial project, primary screen (AID 2303);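 also: 0% = DMSO wells and 100% = digitonin-killed cells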
# EXPERIMENTAL_CONDITIONS: HepG2 viability, 24-48 h, at 10 µM
Activity calls are given as the source filed them.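 How the source made its calls: active means inhibition above 50%; inactive means the rest.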
Would you mind answering with one of these outcomes? yes = active, no = inactive

A selection of reference data follows.
compound=Cc1cccc2[nH]c(-c3ccc(-c4ccc(CNCc5ccc(S(C)(=O)=O)cc5)cc4)cc3)nc12 label_class=no
compound=COc1ccc2ncc(F)c(CCN3CCC[C@H](CNCc4ccc5c(n4)NC(=O)CS5)C3)c2n1 label_class=no
compound=CN(C)CCN(C)Cc1cccc(-c2ccc3c(Nc4ccc(F)cc4Cl)ccnc3c2)c1 label_class=yes
compound=CC(=O)Nc1ccc(CN(Cc2cccc(OC(C)(C)C)c2)Cc2ccc3c(c2)OCCO3)cc1 label_class=no
compound="CN1CCCC(CN2CCN(Cc3cccc(-c4csc(-c5nc6ccccc6[nH]5)c4)c3)CC2)C1 (centres undefined)" label_class=yes

Input line: # lookup: test call for CCN(CC)CCCN(C(=O)Nc1ccc(C#N)cc1)c1nc(-c2ccc(F)cc2)cs1
Output line: no

Input line: # lookup: test call for CC(C)(C)c1ccc(CN2CCC(CNC(=O)c3cc(-c4ccccc4Cl)cs3)C2)cc1 (centres undefined)
Output line: no

Input line: # lookup: test call for Cc1[nH]c2ccc(O)cc2c1C1CCN(CCCCCNC(=O)/C=C/c2ccc(Cl)c(Cl)c2)CC1
Output line: no

* * *

# ASSAY_TARGET: L-lactate dehydrogenase (Plasmodium falciparum (isolate CDC / Honduras)) (UniProt Q27743)
# Sequence (Q27743 whole entry, looked up): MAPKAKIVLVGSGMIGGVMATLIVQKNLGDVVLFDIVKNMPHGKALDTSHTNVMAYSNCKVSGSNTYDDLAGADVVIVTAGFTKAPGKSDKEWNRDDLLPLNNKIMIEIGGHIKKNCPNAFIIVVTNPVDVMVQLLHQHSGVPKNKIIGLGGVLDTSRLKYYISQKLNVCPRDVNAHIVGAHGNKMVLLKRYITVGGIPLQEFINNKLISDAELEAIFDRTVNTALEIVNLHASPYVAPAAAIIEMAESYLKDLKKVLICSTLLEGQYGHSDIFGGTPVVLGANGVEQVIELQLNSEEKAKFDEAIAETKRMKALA
# ASSAY_PROTOCOL: PfLDH activity inhibition – cell lysate, 3D7 strain, counter-screen for P. falciparum growth inhibition project (AID 2304);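 also: 0% = vehicle and 100% = reference inhibitor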
# EXPERIMENTAL_CONDITIONS: P. falciparum 3D7 crude extract, LDH APAD/NBT absorbance; at 2 µM; hits give high values
VALUE_KIND: inhibition (%)
Give just the number in %; leave the unit off.

compound="COc1cccc(C2=CC(c3ccccc3)n3ncc(C(=O)Nc4ccc(Cl)cc4)c3N2)c1 (stereo not given)" assay_target="L-lactate dehydrogenase (Plasmodium falciparum (isolate CDC / Honduras)) (UniProt Q27743)" unit=% numeric_readout=-1
compound="CCC1CCCCN1S(=O)(=O)c1ccc(OC)c(N2CCN(C(=O)C(Cl)(Cl)Cl)CC2)c1 (stereo not given)" assay_target="L-lactate dehydrogenase (Plasmodium falciparum (isolate CDC / Honduras)) (UniProt Q27743)" unit=% numeric_readout=5
compound="CC(C)C(NC(=O)Cc1cccc2ccccc12)C(=O)Nc1cccc(C#N)c1 (stereo not given)" assay_target="L-lactate dehydrogenase (Plasmodium falciparum (isolate CDC / Honduras)) (UniProt Q27743)" unit=% numeric_readout=0
compound="Cc1ccc(C(=O)Nc2ccc(OC3CCN(CCC(C)C)C3)c(Cl)c2)cc1 (stereo not given)" assay_target="L-lactate dehydrogenase (Plasmodium falciparum (isolate CDC / Honduras)) (UniProt Q27743)" unit=% numeric_readout=0

From here, focus on the item given below.
Simply: CS(=O)(=O)CCNc1nccc(N2CCc3ncnc(Nc4ccc(OCc5cccc(F)c5)c(Cl)c4)c3C2)n1 , L-lactate dehydrogenase (Plasmodium falciparum (isolate CDC / Honduras)) (UniProt Q27743), inhibition = -4

* * *

# ASSAY_TARGET: L-lactate dehydrogenase (Plasmodium falciparum (isolate CDC / Honduras))
# ASSAY_PROTOCOL: PfLDH activity inhibition – cell lysate, 3D7 strain, counter-screen for P. falciparum growth inhibition project (AID 2304);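 also: 0% = vehicle and 100% = reference inhibitor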
# EXPERIMENTAL_CONDITIONS: P. falciparum 3D7 crude extract, LDH APAD/NBT absorbance; at 2 µM; hits give high values
Active and inactive are the calls of the source. No rule for the calls is given here.
The entries below are paired with their reported inhibition.

Simply: Cc1c(-c2ccccc2)ccc2[nH]cc(CC#N)c12 , L-lactate dehydrogenase (Plasmodium falciparum (isolate CDC / Honduras)), inhibition = -2% (inactive)

Simply: Nc1nc2c(cnn2CCCCCCCP(=O)(O)O)c(=O)[nH]1 , L-lactate dehydrogenase (Plasmodium falciparum (isolate CDC / Honduras)), inhibition = 4% (inactive)

* * *

# ASSAY_PROTOCOL: human hepatoma cell viability loss – ATP luminescence, cytotoxicity control for P. falciparum antimalarial project, primary screen (AID 2303);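 also: 0% = DMSO wells and 100% = digitonin-killed cells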
# EXPERIMENTAL_CONDITIONS: HepG2 viability, 24-48 h, at 10 µM, hits give high values
The entries below are paired with their reported inhibition.
Give just the number in %; leave the unit off.

Before answering, review these 4 worked examples.
test_smiles=O=C(NCCc1ccc(O)cc1)n1c2ccccc2c2ccccc21 value_kind=inhibition numeric_readout=3
test_smiles=CCOc1ccc(N2CCN(CCCCNC(=O)c3ccc(NC(=O)c4ccc(Cl)cc4)cc3)CC2)c(OCC)c1 value_kind=inhibition numeric_readout=36
test_smiles=Nc1nc(N)c2c(ccc3c2ccn3CC2CC2)n1 value_kind=inhibition numeric_readout=46
test_smiles=CC(C)C[C@H](NC(=O)c1ccc(F)cc1)C(=O)N[C@H](/C=N/NC(=O)c1ccccc1)CCc1ccccc1 value_kind=inhibition numeric_readout=1

From here, focus on the item given below.
Reported inhibition for CCCCN1CCN(c2cc(NS(=O)(=O)c3cccc(C(=O)Nc4ccc(C(F)(F)F)cc4)c3)ccc2OC)CC1 was 6

* * *

# ASSAY_PROTOCOL: inhibition of 3D7 malaria parasite growth – strain 3D7 (AID 2306);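 also: 0% = DMSO wells and 100% = chloroquine plus artemisinin control wells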
# EXPERIMENTAL_CONDITIONS: P. falciparum 3D7 erythrocytic growth, LDH absorbance, 72 h; at 2 µM; hits give high values
The entries below are paired with their reported growth inhibition.
Give just the number in %; leave the unit off.

Before answering, review these 6 worked examples.
compound=O=C(/C=C/c1ccc(Cl)c(Cl)c1)NCCCCCN1CCCN(C(=O)Nc2ccc(Br)cc2)CC1 numeric_readout=99
compound=Clc1ccc2c(Cl)c(CNCCCNc3nc4ccccc4[nH]3)[nH]c2c1 numeric_readout=101
compound=N#Cc1cccc(CN2CCCN(Cc3ccc(C(=O)Nc4ccc(Cl)cc4)cc3)CC2)c1 numeric_readout=98
compound="CCOc1ccccc1[C@H]1[C@H](C(=O)C(C)(C)C)N2c3ccc(Br)cc3C=CC2C12C(=O)c1ccccc1C2=O (some centres undefined)" numeric_readout=95
compound="O=C(C=Cc1ccc(F)cc1)NC1CCC(CCN2CCc3ccc(-c4cnccn4)cc3CC2)CC1 (centres undefined)" numeric_readout=99
compound=CC[C@H](C)CNC(=O)c1cncc(-c2cccc(CN(C)C3CCN(C)CC3)c2)c1 numeric_readout=101

Reported growth inhibition for O=C(/C=C/c1ccc(Cl)c(Cl)c1)NCCCCCCN1CCCN(C(=O)Nc2ccc(Cl)c(Cl)c2)CC1 was 100

Reported growth inhibition for COc1ccc2nccc([C@@H](O)CN3CCC(NCc4nc5ccccc5[nH]4)CC3)c2c1 was 92

Reported growth inhibition for CCCOc1ccc(-c2nonc2NC(=O)c2cccc(OC)c2)cc1OCCC was 94

Reported growth inhibition for CCN(CCCN1CCCCC1)c1cc(C)nc(Nc2cccc(C(F)(F)F)c2C)n1 was 99

Reported growth inhibition for COc1ccc(C)c(Nc2ccnc(Nc3ccc(-c4cnc[nH]4)cc3)n2)c1 was 97

Reported growth inhibition for COc1ccc(Nc2nc(NCc3ccco3)c3ccccc3n2)cc1 was 99

Reported growth inhibition for CO/C(=C\C=C\c1cc2cc(Cl)c(Cl)cc2[nH]1)C(=O)NC1C[C@H]2CC[C@@H](C1)N2C (some centres undefined) was 88

Reported growth inhibition for CC(=O)c1c[nH]c2ccc(/C=C/C(=O)NC3CCC(CCN4CCc5ccc(C#N)cc5CC4)CC3)cc12 (centres undefined) was 101

Reported growth inhibition for CC(C)CNCc1ccc(-c2ccc(CN(CCCN3CCN(C)CC3)C(=O)CCC3CCCC3)cc2)cc1 was 96

Reported growth inhibition for O=C(/C=C/c1ccc(Cl)cc1Cl)NCCCCCN1CCC(c2c[nH]c3ccccc23)CC1 was 99

Reported growth inhibition for O=C(Nc1ccc(Cn2ncc(N3CCCNCC3)c(Cl)c2=O)cc1)Nc1ccc(F)cc1[N+](=O)[O-] was 90

Reported growth inhibition for Cc1cc(N[C@@H](CC(C)C)C(=O)NCc2cccc(F)c2)nc(NCC2CCCCC2)n1 was 99

Reported growth inhibition for CC(C)CN(Cc1c(O)ccc2[nH]c(-c3ccc(F)cc3F)nc12)CC(C)C was 98
